- Test system: Aspergillus fumigatus
- testName: anti-Aspergillus fumigatus growth inhibition test in liquid medium (96-well microplates)
- Format: cell-based
- experimentalSetup: fold relative to heliomycin
Let's look at some sequences and their measured Activity A.f. (relative activity in relation to heliomycin).
valueType: Activity A.f. (relative activity in relation to heliomycin)

1) DKLIGSCVWGAVNYTSDCNGECKRRGYKGGHCGSFANINCWCET [pEM23, peptide derived from heliomycin]; 2
2) DKLIGTCVWGAVNYTSDCNGECKRRGYKGGHCGSFANVNCWCET [pEM38, peptide derived from heliomycin]; 1
3) DKLIGSCVWGAVNYTTDCNGECKRRGYKGGHCGSFANVNCWCET [pEM43, peptide derived from heliomycin]; 2
4) DKLIGSCVWGAVNYTSDCRGECKRRGYKGGHCGSFANVNCWCET [pEM44, peptide derived from heliomycin]; 2
5) DKLIGSCVWGAVNYTSDCNGECKRRGYKGGHCGSFANVNCWCER [pEM7, peptide derived from heliomycin]; 1

###

- System: Candida albicans
- testName: anti-Candida albicans growth inhibition test in liquid medium (96-well microplates)
- Format: cell-based
- experimentalSetup: fold relative to heliomycin
- Procedure: The anti-Candida albicans and anti-Aspergillus fumigatus activities of the different analogues were assessed using a growth inhibition test in liquid medium made in 96-well microplates. The activity of the purified peptides was tested for different dilutions of each peptide and was compared with those of heliomycin and Ard1 quantified under the same conditions. The activity test was made directly on yeasts derived from a stock frozen at −80° C., in Sabouraud medium containing 15% glycerol. […]
Listed here: items and their measured Activity C.a. (relative activity in relation to heliomycin).
valueType: Activity C.a. (relative activity in relation to heliomycin)

1) DKLIGSCVWGAVNYTSDCNGECKRRGYKGGHCGSFLNVNCWCET [pEM25, peptide derived from heliomycin]; 10
2) DKLIGSCVWGAVNYTTDCNGECKRRGYKGGHCGSFANVNCWCET [pEM43, peptide derived from heliomycin]; 1
3) DKLIGSCVWGAVNYTSDCNGECKRRGYKGGHCGSFLNINCWCET [pEM24, peptide derived from heliomycin]; 4
4) DKLIGSCVWGAVNYTSDCNGECKRRGYKGGHCGSFANVNCWCQT [pEM21, peptide derived from heliomycin]; 2

###

- Test system: C. krusei
- Type: cell-based
- Source text: […] Determination of minimal inhibiting concentrations (MIC) was made by measuring absorbency at 600 nm using a spectrophotometer-microtitration plate reader. […]
Bridges are numbered along the chain shown (N, C = ends). Where no end group is shown, it is not given here.
valueType: MIC (µg/mL)

1. DKLIGSCVWGAVNYTSNCRAECKRRGYKGGHCGSFANVNCWCET (disulfide 7-32, 18-40, 22-42 (inferred)) [pEM51]; 1.56
2. DKLIGSCVWGAVNYTSNCNAECKRRGYKGGHCGSFLNVNCWCQT (disulfide 7-32, 18-40, 22-42 (inferred)) [pEM46]; 1.56
3. DKLIGSCVWGAVNYTSNCNAECKRRGYKGGHCGSFLNVNCWCER (disulfide 7-32, 18-40, 22-42 (inferred)) [pEM48]; 1.56
4. DKLIGSCVWGAVNYTSNCNAECKRRGYKGGHCGSFANVNCWCET (disulfide 7-32, 18-40, 22-42 (inferred)) [Ard1]; 3.125
5. DKLIGSCVWGAVNYTSNCNAECKRRGYKGGHCGSFLNVNCWCET (disulfide 7-32, 18-40, 22-42 (inferred)) [pEM35]; 1.56
6. DKLIGSCVWGAVNYTSNCNAECKRRGYKGGHCGSFANVNCWCQT (disulfide 7-32, 18-40, 22-42 (inferred)) [pEM31]; 3.125

###

- System: Candida albicans (IHEM 8060 strain)
- testName: Candida albicans infected model, lethal in mice (disseminated candidiasis)
- Format: in vivo
- experimentalSetup: FIGS. 4-5; 10 mg/kg; placebo 5 alive
Bridges are numbered along the chain shown (N, C = ends). Where no end group is shown, it is not given here.
Quick list: mice alive on day 7 (out of 10) per entry.
valueType: mice alive on day 7 (out of 10) (mice)

1) DKLIGSCVWGAVNYTSNCNAECKRRGYKGGHCGSFANVNCWCET (disulfide 7-32, 18-40, 22-42 (inferred)) [Ard1]; 8
2) DKLIGSCVWGAVNYTSDCNGECKRRGYKGGHCGSFLNINCWCET [pEM24, peptide derived from heliomycin]; 7
3) DKLIGSCVWGAVNYTSNCNAECKRRGYKGGHCGSFANVNCWCER [pEM30, peptide derived from Ard1]; 7
4) DKLIGSCVWGAVNYTSNCNAECKRRGYKGGHCGSFANVNCWCQT (disulfide 7-32, 18-40, 22-42 (inferred)) [pEM31]; 8
5) DKLIGSCVWGAVNYTSNCNAECKRRGYKGGHCGSFLNVNCWCET (disulfide 7-32, 18-40, 22-42 (inferred)) [pEM35]; 9

###

- Test system: Candida albicans
- testName: anti-Candida albicans growth inhibition test in liquid medium (96-well microplates)
- Assay type: cell-based
- experimentalSetup: fold relative to heliomycin
- Description: The anti-Candida albicans and anti-Aspergillus fumigatus activities of the different analogues were assessed using a growth inhibition test in liquid medium made in 96-well microplates. The activity of the purified peptides was tested for different dilutions of each peptide and was compared with those of heliomycin and Ard1 quantified under the same conditions. The activity test was made directly on yeasts derived from a stock frozen at −80° C., in Sabouraud medium containing 15% glycerol. […]
valueType: Activity C.a. (relative activity in relation to heliomycin)

1) DKLIGTCVWGAVNYTSDCNGECKRRGYKGGHCGSFANVNCWCET [pEM38, peptide derived from heliomycin]; 1
2) DKLIGSCVWGAVNYTSDCNGECKRRGYKGGHCGSFANINCWCET [pEM23, peptide derived from heliomycin]; 1

###

# Lookup of reported Activity C.a. (relative activity in relation to heliomycin) keyed by entry
- Tested on: Candida albicans
- testName: anti-Candida albicans growth inhibition test in liquid medium (96-well microplates)
- Format: cell-based
- experimentalSetup: fold relative to heliomycin
valueType: Activity C.a. (relative activity in relation to heliomycin)

1) DKLIGSCVWGAVNYTRDCNGECKRRGYKGGHCGSFANVNCWCET [pEM42, peptide derived from heliomycin]; 8
2) NKLIGSCVWGAVNYTSDCNGECKRRGYKGGHCGSFANVNCWCQT [pEM39, peptide derived from heliomycin]; 2
3) DKLIGSCVWGAVNYTSDCRGECKRRGYKGGHCGSFANVNCWCET [pEM44, peptide derived from heliomycin]; 8
4) NKLIGSCVWGAVNYTSDCNGECKRRGYKGGHCGSFANVNCWCET [pEM37, peptide derived from heliomycin]; 2

###

- System: Aspergillus fumigatus
- testName: anti-Aspergillus fumigatus growth inhibition test in liquid medium (96-well microplates)
- Format: cell-based
- experimentalSetup: fold relative to heliomycin
Entries and their measured Activity A.f. (relative activity in relation to heliomycin) follow.
valueType: Activity A.f. (relative activity in relation to heliomycin)

1. DKLIGSCVWGAVNYTSDCNGECKRRGYKGGHCGSFANVNCWCQT [pEM21, peptide derived from heliomycin]; 10-20
2. NKLIGSCVWGAVNYTSDCNGECKRRGYKGGHCGSFLNVNCWCQT [pEM61, peptide derived from heliomycin]; 3-6
3. DKLIGSCVWGAVNYTSDCNGECKRRGYKGGHCGSFINVNCWCET [pEM22, peptide derived from heliomycin]; 4-8

###

- Tested on: Candida albicans
- testName: anti-Candida albicans growth inhibition test in liquid medium (96-well microplates)
- Assay type: cell-based
- experimentalSetup: fold relative to Ard1
Bridges are numbered along the chain shown (N, C = ends). Where no end group is shown, it is not given here.
sequences and their reported Activity C.a. (relative activity in relation to Ard1)
valueType: Activity C.a. (relative activity in relation to Ard1)

1. DKLIGSCVWGAVNYTSNCNAECKRRGYKGGHCGSFINVNCWCQT [pEM47, peptide derived from Ard1]; 2-4
2. DKLIGSCVWLAVNYTSNCNAECKRRGYKGGHCGSFANVNCWCET [pEM56, peptide derived from Ard1]; 1-2
3. DKLIGSCVWGAVNYTSRCNAECKRRGYKGGHCGSFANVNCWCET [pEM52, peptide derived from Ard1]; 1-2
4. DKLIGSCVWGAVNYTSNCNAECKRRGYKGGHCGSFLNVNCWCER (disulfide 7-32, 18-40, 22-42 (inferred)) [pEM48]; 6-12
5. DKLIGSCVWGAVNYTRNCNAECKRRGYKGGHCGSFANVNCWCET [pEM50, peptide derived from Ard1]; 1-2
6. DKLIGSCVWLAVNYTSNCNAECKRRGYKGGHCGSFLNVNCWCQT [pEM55, peptide derived from Ard1]; 1-2
7. DKLIGSCVWGAVNYTSNCNAECKRRGYKGGHCGSFLNVNCWCQT (disulfide 7-32, 18-40, 22-42 (inferred)) [pEM46]; 4-8
8. DKLIGSCVWGAVNYTSNCRAECKRRGYKGGHCGSFANVNCWCET (disulfide 7-32, 18-40, 22-42 (inferred)) [pEM51]; 2-4
